Test system: NCI/ADR-RES ovarian
Experiment: NCI tumour cell line growth inhibition, 48 h
parameter: GI50

Ask: Bench note: what GI50 did COC1CCC(n2c([C@@H]3CCCC(=O)N3c3ccc(F)c(F)c3)nc3cc(-c4c(C)noc4C)ccc32)CC1 (stereo partly drawn) show?
Reply: 13.5 µM

Ask: Bench note: what GI50 did COc1cc2c3c(n(CCCNCCN4CCOCC4)c(=O)c2cc1OC)-c1cc2c(cc1C3=O)OCO2 show?
Reply: 0.11 µM

Ask: Bench note: what GI50 did COc1ccc2c(c1)C(=O)c1c-2n(CCCCl)c(=O)c2cc(N(C)C)ccc12 show?
Reply: > 100 µM

----------
Tested on: SF-539 CNS
Assay: NCI tumour cell line growth inhibition, 48 h; in the data active means GI50 below about 0.43 µM; inactive means the rest
API: response.call in active, inactive

Completed entries (count: 4):
In [3]: df
Out[3]:
                                   molecule  assigned_label
0  COc1ccc2sc3c(NCCCNCCO)nc4ccccc4c3c(=O)c2c1        inactive
1  COc1cccc2c(Nc3ccc(C(=O)NCCN(C)C)cc3)cc(-c3ccccc3)nc12        inactive
2  CN1c2ccccc2C(C)(C)C12CC(c1ccc(Cl)c(S(=O)(=O)N3CCCC3)c1)=NO2 (configuration not stated)        inactive
3  CCC(C)CC(CC)NCCN1CCN(C(CC)CC(C)CC)C1=S (configuration not stated)        inactive

Ask: Hey, what did the test say about COc1ccc(-c2nn(-c3cccc(NC(=O)Nc4cccc(C(F)(F)F)c4)c3)cc2-c2ccncc2)cc1Cl ?
Reply: inactive

Ask: Hey, what did the test say about COc1ccc(-c2[nH]ncc2-c2cc(OC)c(OC)c(OC)c2)cc1 ?
Reply: active

Ask: Hey, what did the test say about Cc1ccccc1NC(=O)c1sc2nc3c(cc2c1N)C(=O)CCC3 ?
Reply: inactive

----------
Test system: SK-MEL-28 melanoma
Assay: NCI tumour cell line growth inhibition, 48 h
# reported TGI; entries follow

Ask: Kindly state the measured TGI obtained for O=C1CC(c2c[nH]c3ccccc23)C(=O)N1c1ccccc1 (stereo not given) with SK-MEL-28 melanoma.
Reply: > 100 µM

Ask: Kindly state the measured TGI obtained for C/C(=N\NC(=O)N/N=C(\C)c1ccccn1)c1ccccn1 with SK-MEL-28 melanoma.
Reply: > 100 µM

Ask: Kindly state the measured TGI obtained for CCOC(=O)C1=CN(C(=O)c2ccccc2)CCC1Cc1ccccc1 (stereo not given) with SK-MEL-28 melanoma.
Reply: 63.3 µM

Ask: Kindly state the measured TGI obtained for O=C(CCC(=O)OCC1OC(O)(CC2OC(CO)C(O)C(O)C2O)C(O)C1O)OCc1ccccc1 (stereo not given) with SK-MEL-28 melanoma.
Reply: > 100 µM

Ask: Kindly state the measured TGI obtained for COC1=C(OC)C(=O)C(Cc2c(Cl)nc3n2CCS3)=C(C)C1=O with SK-MEL-28 melanoma.
Reply: 27.2 µM

Ask: Kindly state the measured TGI obtained for Cc1nc2sccn2c1C(=O)OCCOCCOCCOCCOC(=O)c1c(C)nc2sccn12 with SK-MEL-28 melanoma.
Reply: > 100 µM

Ask: Kindly state the measured TGI obtained for O=[N+]([O-])c1ccc(Cl)cc1N/N=C/c1cccs1 with SK-MEL-28 melanoma.
Reply: > 100 µM

Ask: Kindly state the measured TGI obtained for CC12CCC(O)CC1CCC1C2CCC2(C)C(C3=CC(=O)OC3)CCC12 (stereo not given) with SK-MEL-28 melanoma.
Reply: > 100 µM

----------
System: UACC-257 melanoma
Assay: NCI tumour cell line growth inhibition, 48 h
# reported TGI; entries follow

Sample records with TGI:
>>> print(df.to_string())
                                   compound  parameter     value
0  O=C1CC(Cl)c2c(Cl)sc(Cl)c21 (stereo unspecified)        TGI   9.25 µM
1  CC(CC(C)(C)[N+](C)(C)C)[N+](C)(C)C (stereo unspecified)        TGI  > 100 µM
2  COc1cc(-c2coc3c(OC)c(OC4OC(COC5OC(C)C(O)C(O)C5O)C(O)C(O)C4O)c(OC)c(O)c3c2=O)cc(C)c1O (stereo unspecified)        TGI   68.2 µM

Ask: Bench note: what TGI did CC1CN=C(N(C)C(=O)Nc2ccc(Cl)c(Cl)c2)S1 (stereo unspecified) show?
Reply: > 100 µM

Ask: Bench note: what TGI did CCc1nc(N)nc(N)c1-c1ccc(Cl)c(N=NN(C)C)c1 show?
Reply: > 100 µM

Ask: Bench note: what TGI did Oc1ccc(SCc2ccc(NCc3ccccc3)cc2)cc1 show?
Reply: > 100 µM

----------
System: A498 renal
Test: NCI tumour cell line growth inhibition, 48 h
# reported TGI; entries follow

Sample records with TGI:
>>> df
                                   molecule        value
0  COc1ccc(-c2[nH]ncc2-c2cc(OC)c(OC)c(OC)c2)cc1  < 0.0127 µM
1        O=C1NC(=S)NC(=O)C1=Cc1ccc2ccccc2n1     > 100 µM

Ask: Bench note: what TGI did CC1=N/C(=C\c2ccc([N+](=O)[O-])cc2)C(=O)O1 show?
Reply: > 100 µM

Ask: Bench note: what TGI did c1csc(-c2nnc(C34CC5CC(CC(C5)C3)C4)o2)c1 show?
Reply: 43.9 µM

----------
# reported TGI; entries follow
Test system: SW-620 colon
Assay: NCI tumour cell line growth inhibition, 48 h

Sample records with TGI:
compound	tgt	parameter	value
COc1cc(/C=C/C(=O)c2cc(OC)c(OC)c(OC)c2)cc(OC)c1OC	SW-620 colon	TGI	5.67 µM
COc1cc(C2C3=C(N=C4SC(C(C)=O)=C(C)N42)c2ccccc2CC3)cc(OC)c1OC (configuration not stated)	SW-620 colon	TGI	> 100 µM
CC(C)c1ccc(O)c(=O)cc1	SW-620 colon	TGI	> 100 µM
C1C[OH+]CC[OH+]CC[OH+]CC[OH+]CC[OH+]CC[OH+]1.[Cl-].[Ta+5]	SW-620 colon	TGI	> 100 µM
OC(C(=Nc1ccccc1)c1ccccc1)c1ccccc1 (configuration not stated)	SW-620 colon	TGI	66.5 µM
Nc1nc(Nc2ccc3c(c2)CCC(N2CCCC2)CC3)nn1-c1cc2c(nn1)-c1ccccc1CCC2 (configuration not stated)	SW-620 colon	TGI	3.17 µM
Clc1ccc(Nc2nc3ccccc3c3occc23)cc1	SW-620 colon	TGI	14.8 µM
Cc1cnc2[nH]c(-c3cccc(Cl)c3)cc(=O)c2c1	SW-620 colon	TGI	> 100 µM
CC(C)(C)c1cc(C2NC(=O)NC2=O)cc(C(C)(C)C)c1O (configuration not stated)	SW-620 colon	TGI	> 100 µM
CC12CCC(O)CC1CCC1C2CCC2(C)C(C3=CC(=O)OC3)CCC12 (configuration not stated)	SW-620 colon	TGI	> 100 µM

Ask: Bench note: what TGI did C1=C[C@]2(CCC13OCCO3)COc1ccccc12 show?
Reply: > 100 µM

Ask: Bench note: what TGI did CN1CCN(c2c(O)c3c(c(O)c2Cl)C(=O)C=CC3=O)CC1 show?
Reply: 0.369 µM

Ask: Bench note: what TGI did N#Cc1ccc2oc3ccc(C#N)cc3c(=O)c2c1 show?
Reply: > 100 µM

Ask: Bench note: what TGI did Cc1csc2n(C)c(=O)c3ccccc3[n+]12 show?
Reply: > 100 µM

Ask: Bench note: what TGI did Nc1c(O)c(S(=O)(=O)O)c(O)c2c1C(=O)c1ccccc1C2=O show?
Reply: > 100 µM

Ask: Bench note: what TGI did OCCNc1nc2c(N3CCCC3)nc(N3CCNCC3)nc2nc1NCc1ccccc1 show?
Reply: 42.4 µM

Ask: Bench note: what TGI did C=C1C(=O)O[C@H]2[C@H]1CC(=O)/C(C)=C\CC[C@@]1(C)O[C@@H]21 show?
Reply: 6.15 µg/mL

Ask: Bench note: what TGI did CC(C)C(/C=C/c1ccccc1)=N\NC(=S)NN show?
Reply: > 100 µM

Ask: Bench note: what TGI did CC(C)(Oc1ccc(C(=O)c2ccc(Cl)cc2)cc1Cl)C(=O)N1CCN(c2ccccc2)CC1 show?
Reply: > 100 µM

Ask: Bench note: what TGI did COC1=C(OC)C(=O)C(Cc2c(Cl)nc3n2CCS3)=C(C)C1=O show?
Reply: 33.8 µM

Ask: Bench note: what TGI did Cc1nn(C)c(=O)c2nn(-c3ccccc3)c(C)c12 show?
Reply: > 100 µM

Ask: Bench note: what TGI did COC1(OC)c2ccccc2C2(O)c3ccccc3C(=O)C12 (configuration not stated) show?
Reply: > 100 µM

Ask: Bench note: what TGI did OC1(c2ccc(Cl)cc2)c2ccccc2C2=NCc3ccccc3CN21 (configuration not stated) show?
Reply: 15.8 µM

Ask: Bench note: what TGI did N#CC(=S)Nc1ccc(F)cc1 show?
Reply: > 100 µM

Ask: Bench note: what TGI did Cc1nc2ccc(NCCN(C)C)c3c(=O)c4cc(O)ccc4n1c23 show?
Reply: 4.53 µM

Ask: Bench note: what TGI did CC(=O)N1C(OCc2ccccc2)CCN1c1ccccc1 (configuration not stated) show?
Reply: > 10 µM
